// reported TGI per item
System: MALME-3M melanoma
Assay: NCI tumour cell line growth inhibition, 48 h

[
  {
    "COMPOUND": "COC1=CC(=O)C2C(C1=O)[C@@H]1c3ccccc3OC(C)(C)[C@H]21 (stereo partly specified)",
    "RECORDED VALUE": "34 µM"
  }
]

The reported TGI of the compound CCCCCCCCCC(O)CC(=O)c1c(O)cccc1O (stereo unspecified) was 32.3 µM

Reported TGI ( COc1ccc2c3c(c(C(=O)O)oc13)CCC2 ) = > 100 µM

So, O=C1Nc2ccccc2/C1=C\c1cccc(/C=C2/C(=O)Nc3ccccc32)n1 ? Its TGI was 1.08 µM

Looking up CCO/C(CCn1[nH]c(=O)c(Cl)c(Cl)c1=O)=N\NC(=O)C(=O)NN , I found its TGI recorded as > 100 µM

// recorded TGI for C[N+](C)=c1ccc2nc3c(ccc4ccccc43)oc-2c1 : 26.1 µM

---

Tested on: LOX IMVI melanoma
Experiment: NCI tumour cell line growth inhibition, 48 h
ENDPOINT LABEL: TGI

// solved cases for TGI follow
[
  {
    "COMPOUND": "O=C(O)C1CCN(Cc2oc(CO)cc(=O)c2O)C1 (stereo not given)",
    "TGI": "> 100 µM"
  },
  {
    "COMPOUND": "CC(N)Cc1ccc(Cl)cc1 (stereo not given)",
    "TGI": "> 100 µM"
  },
  {
    "COMPOUND": "CC(C)(CN1CCOCC1)C(=O)/C=C/c1ccc(/C=C/C(=O)C(C)(C)CN2CCOCC2)cc1",
    "TGI": "1.54 µM"
  },
  {
    "COMPOUND": "COc1ccc(C2S/C(=C\\c3cccc(OC)c3)C(=O)N2NC(=O)Cc2ccccc2)cc1 (stereo not given)",
    "TGI": "> 100 µM"
  },
  {
    "COMPOUND": "O=C1NC(=O)C(=Cc2c3ccccc3cc3ccccc23)C(=O)N1",
    "TGI": "> 100 µM"
  },
  {
    "COMPOUND": "CCCCCCCCCCCCCCCCNCC(O)CN (stereo not given)",
    "TGI": "3.45 µM"
  },
  {
    "COMPOUND": "CCCCOc1c(C(=O)O)cc(Br)cc1C(=O)O",
    "TGI": "> 100 µM"
  },
  {
    "COMPOUND": "CC1(C)OC2CC3COC(=O)C3CC2O1 (stereo not given)",
    "TGI": "> 100 µM"
  },
  {
    "COMPOUND": "O=c1cc(-c2ccccc2)oc2ccc(OC/C(=N/O)c3ccc(F)cc3)cc12",
    "TGI": "12.3 µM"
  }
]

With those in mind, consider the next compound.
Query Cc1cn(CCC(N)C(=O)O)c(=O)[nH]c1=O (stereo not given) on LOX IMVI melanoma; TGI returned: > 100 µM

---

Test system: BT-549 breast
Test: NCI tumour cell line growth inhibition, 48 h; in the data active means GI50 below about 0.43 µM; inactive means the rest
*1 amine or outer side, *2 acyl side, *3 side chain or, on linkers, in order; H or OH if unused. Where a SMILES comes first, the peptide text is derived from it. Bridges are numbered along the chain shown (N, C = ends). Roman numbers before positions name the chains, in order. [ ]: non-standard residue; d: D form. Actinocin(9to1) = Cc1c2oc3c(C)ccc(C(=O)[*:1])c3nc-2c(C(=O)[*:2])c(N)c1=O; NMeV = CN[CH](C(=O)O)C(C)C; Sar = CNCC(=O)O
Please state which outcome applies, choosing from class 1 (active), class 0 (inactive)

[
  {
    "MOLECULE": "C=C(C)[C@@H]1C/C=C(/CO)CC[C@H]2O[C@]2(C)CC/C=C(\\C)CC1",
    "ASSIGNED LABEL": "class 0"
  },
  {
    "MOLECULE": "COc1cccc(OC(=O)c2ccc(C(F)(F)F)nc2Nc2c(C)cccc2Cl)c1",
    "ASSIGNED LABEL": "class 0"
  },
  {
    "MOLECULE": "c1cc(CN2CCCNCCNCCCNCC2)ccc1CN1CCCNCCNCCCNCC1",
    "ASSIGNED LABEL": "class 0"
  },
  {
    "MOLECULE": "C[C@]12CC[C@@H]3c4ccc(O)cc4CC[C@H]3[C@@H]1CC[C@@H]2NS(=O)(=O)c1cccc(Cl)c1",
    "ASSIGNED LABEL": "class 0"
  },
  {
    "MOLECULE": "CC/C=C\\C[C@H](O)C/C=C1/C(=O)C=C[C@@H]1C/C=C\\CCCC(=O)OC(C)C",
    "ASSIGNED LABEL": "class 0"
  }
]

Asked: Hi, do you know how Cc1ccc(-c2c(C#N)[n+](=O)c3cc(F)c(F)cc3n2[O-])cc1 came out in this test?
Given back: class 0

Asked: Could you kindly confirm the outcome this assay logged for COc1cc(-c2nn(-c3cccc(NC(=O)NCCNS(=O)(=O)c4ccc(Cl)cc4)c3)cc2-c2ccncc2)ccc1Cl ?
Given back: class 0

Asked: // param item: Cn1cc(-c2nc(-c3c[nH]c4ccncc34)cs2)c2ccccc21 ; yields the recorded call
Given back: class 0

Asked: State the result this test recorded for Cc1c2oc3c(C)ccc(C(=O)OC(C)C4NC(=O)C(C(C)C)N(C)C(=O)CN(C)C(=O)C5CCCN5C(=O)C(C(C)C)NC4=O)c3nc-2c(C(=O)OC(C)C2NC(=O)C(C(C)C)N(C)C(=O)CN(C)C(=O)C3CCCN3C(=O)C(C(C)C)NC2=O)c(N)c1=O (centres undefined) (I: cyclo([Sar][NMeV]TVP) / II: cyclo([Sar][NMeV]TVP); linker I:3-II:3 via Actinocin(9to1); configuration not given here) .
Given back: class 1

Asked: Write down the call the test reported for this molecule. Item: COc1cc(OC)cc(-c2nc3sccn3c2/C=N/N=C(N)N)c1
Given back: class 0

Asked: Can you look up the reported call for CCC#CC[C@H](O)C/C=C1/C(=O)C=C[C@@H]1C/C=C\CCCC(=O)OC for me?
Given back: class 0

Asked: Hi, do you know how O=C1NCN(c2ccccc2)C12CCN(CCCC(c1ccc(F)cc1)c1ccc(F)cc1)CC2 came out in this test?
Given back: class 0

Asked: Identify the outcome logged in this assay for the molecule shown: O=C1CSC(c2ccc(-c3nc4ccccc4[nH]3)cc2)=N1
Given back: class 0

Asked: Tell me the recorded outcome of this test for CCCCCCCN(CCCCCCC)C(=N)c1ccnc2ccccc12 .
Given back: class 0

---

Form field: log10 TGI (one value per entry).
Test system: SNB-75 CNS
Experiment: NCI tumour cell line growth inhibition, 48 h
Log scale reminder: TGI in µM, then log10 taken.

Take a look at these entries with their results.
[
  {
    "COMPOUND": "Cn1cc(-c2nc(-c3c[nH]c4ccncc34)cs2)c2ccccc21",
    "TGT": "SNB-75 CNS",
    "RECORDED VALUE": 0.42
  },
  {
    "COMPOUND": "CCCCCCCCCCCCCCCCNCC(O)CN (centres undefined)",
    "TGT": "SNB-75 CNS",
    "RECORDED VALUE": 1.04
  },
  {
    "COMPOUND": "O=C1/C(=C/c2ccc(F)c(F)c2)CN(C(=O)C(Cl)Cl)C/C1=C\\c1ccc(F)c(F)c1",
    "TGT": "SNB-75 CNS",
    "RECORDED VALUE": 0.11
  },
  {
    "COMPOUND": "Cc1ccc(-c2c(C#N)[n+](=O)c3cc(F)c(F)cc3n2[O-])cc1",
    "TGT": "SNB-75 CNS",
    "RECORDED VALUE": 1.54
  },
  {
    "COMPOUND": "CCN(CC)CCC(=O)OC1C(C)=CC(C)C(=O)CC(C(C)CC2CCC(O)C(OC)C2)OC(=O)C2CCCCN2C(=O)C(=O)[C@@]2(O)OC(CCC2C)CC(OC)\\C(C)=C/C=C/C=C/C(C)CC(C)C(=O)C1OC (some centres undefined)",
    "TGT": "SNB-75 CNS",
    "RECORDED VALUE": -0.01
  }
]

Lab note: next compound to report on.
Note to self: log10 TGI recorded for CN(C)C[C@H]1CCn2c(c(C3=C(c4cn(C)c5ccccc45)C(=O)NC3=O)c3ccccc32)C1 was 0.71

---

Parameter: TGI. Scope: all listed entries.
Test system: SNB-75 CNS
Assay: NCI tumour cell line growth inhibition, 48 h

Recorded results for 5 molecules are shown here.
[
  {
    "MOLECULE": "c1cc(CN2CCCNCCNCCCNCC2)ccc1CN1CCCNCCNCCCNCC1",
    "TGI": "> 100 µM"
  },
  {
    "MOLECULE": "O=C1CCCCC/C1=C\\c1cccc([N+](=O)[O-])c1",
    "TGI": "> 100 µM"
  },
  {
    "MOLECULE": "Oc1cc(O)c2c(c1)O[C@H](c1cc(O)c(O)c(O)c1)[C@@H](O)C2",
    "TGI": "38.7 µM"
  },
  {
    "MOLECULE": "CC(CN1CC(=O)NC(=O)C1)N1CC(=O)NC(=O)C1 (centres undefined)",
    "TGI": "> 715 µM"
  },
  {
    "MOLECULE": "O=C1OC(c2ccccc2)(c2ccccc2)c2ccc3ccc(F)cc3c21",
    "TGI": "> 100 µM"
  }
]

Consider COc1cc(O)c(C(=O)CC(C)=O)c(OC)c1 . Its measured TGI is > 100 µM
